B1: Hairpin Ribozyme (parent)
chain: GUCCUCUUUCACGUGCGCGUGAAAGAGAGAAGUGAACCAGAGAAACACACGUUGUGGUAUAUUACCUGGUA

variants of: B1; assay: self-cleavage, relative activity (ratio to wild type); higher = more cleavage; co-transcriptional
value-type: self-cleavage
Lab note: write the figure by itself, no unit.

Look over these answered cases.
1) C4U U58A : 0.172
2) U20A A59U : 0.144
3) A30U G51A : 0.104
4) G17C U67A : 0.227
5) A47U G54A : 0.159
6) A11C U14A : 0.533
7) G34C A59U : 0.202
8) C4A U62A : 0.167

Prompt: Which self-cleavage value is on record for C3G A61U ?
Response: 0.0942

Prompt: Same again, this time with C18A A41C
Response: 1.21

Values compiled from the RNAGym collection of RNA variant scans (doi:10.7554/elife.80360).
